The reported measurements were obtained from ChEMBL document CHEMBL1153242.

assay.notes: AUC (0 to8 hrs) in C57BL/6J mouse at 20 mg/kg, po
Format: ADME, organism-based
Design: time < 8 hr, dose 20 mg/kg, route oral
condition.context: plasma
Give AUC(0-t) at 8 h for every item shown.
One number for each entry, in ng·h/mL.

compound | AUC(0-t) at 8 h (ng·h/mL)
FC(F)(F)c1cccc2c1CCC1(CCN(c3ccc(-c4nnc(Cc5cccnc5)o4)nn3)CC1)O2 | 7800

Problem: Respond only with AUC(0-t) at 8 h recorded for O=C(NCC(O)c1cccnc1)c1ccc(N2CCC3(CCc4c(cccc4C(F)(F)F)O3)CC2)nn1 (configuration not stated)
Solution: 13000

---

assay.notes: Volume of distribution in C57BL/6J mouse at 5 mg/kg, iv
Assay type: ADME, organism-based
Set-up: dose 5 mg/kg, route intravenous
condition.context: in vivo
property.name: Vd
// return the numeric value with its unit appended

Problem: Respond only with Vd recorded for O=C(NCC(O)c1cccnc1)c1ccc(N2CCC3(CCc4c(cccc4C(F)(F)F)O3)CC2)nn1 (stereo unspecified)
Solution: 1 L/kg

---

system.tested: Stearoyl-CoA desaturase (Homo sapiens, UniProt O00767)
Sequence (O00767 whole entry): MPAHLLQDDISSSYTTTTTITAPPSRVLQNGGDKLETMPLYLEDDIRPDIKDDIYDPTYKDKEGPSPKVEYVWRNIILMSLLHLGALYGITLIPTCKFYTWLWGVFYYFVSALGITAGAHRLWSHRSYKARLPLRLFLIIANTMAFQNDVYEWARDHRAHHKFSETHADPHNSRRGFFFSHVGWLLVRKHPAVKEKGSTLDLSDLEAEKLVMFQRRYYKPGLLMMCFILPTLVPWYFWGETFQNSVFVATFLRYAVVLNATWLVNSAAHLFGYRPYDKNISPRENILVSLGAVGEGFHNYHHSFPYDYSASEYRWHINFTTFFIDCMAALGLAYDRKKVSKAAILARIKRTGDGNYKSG
assay.notes: Inhibition of SCD1 in human 293A cell microsomal fraction assessed as conversion of [14C]stearate to [14C]oleate after 60 mins at 0.4 uM
pIC50: −log10 of the molar value.
property.name: pIC50

Problem: // fetch pIC50; item: O=C(NCC(O)c1ccccc1)c1ccc(N2CCC3(CC2)Cc2ccccc2CO3)nn1 (stereo unspecified) ; system: Stearoyl-CoA desaturase (Homo sapiens, UniProt O00767)
Solution: < 6.40
